Cited source for all entries: ChEMBL document CHEMBL1177877

- testDetails: Selectivity index, EC50 for against african green monkey Vero cells to IC50 for Mycobacterium tuberculosis H37Rv
- Format: functional
Respond with Met for Ratio values of 0.4 and above, Not met for values below.

Study these solved cases before continuing.
- testSmiles: "N=c1c2ncnc(Nc3ccc(F)cc3)c2ncn1NC(=O)c1ccncc1"
  group: "Met"
- testSmiles: "COc1ccc(Nc2ncnc3c(=N)n(NC(=O)c4ccncc4)cnc23)cc1"
  group: "Not met"
- testSmiles: "COc1ccc(Nc2ncnc3c(=N)n(NC(=O)c4ccccc4)cnc23)cc1"
  group: "Not met"
- testSmiles: "N=c1c2ncnc(Nc3ccccc3)c2ncn1NC(=O)c1ccccc1"
  group: "Not met"
- testSmiles: "N=c1c2ncnc(Nc3ccccc3)c2ncn1NC(=O)c1ccncc1"
  group: "Met"

Next molecule, please.
Reported Ratio reaches at least 0.4 for N=c1c2ncnc(Nc3ccc(F)cc3)c2ncn1NC(=O)c1ccccc1 ?
Met
